Where these numbers come from: the supplement of paper PMC12764529

Hi there, I'd appreciate the recorded folding stability dG unfold for every entry that follows.
# Experiment: folding stability dG unfold (combined trypsin and chymotrypsin); higher = more stable
Numbers only, in kcal/mol.

Observe how each entry below is paired with its result.
{"Sequence Content": "SAGGSITKTLGTEEKGDKTITYSVTTSPEGKITFTTTTKTPSGSGTSTTTTTTTTPLAGLPLPPLGGSAGGS [r8_458_JUSTAS]", "Measured Property": "folding stability dG unfold", "Unit Abbreviation": "kcal/mol", "Obs Value": 0.717}
{"Sequence Content": "SMEITLLSTDPTPGGMTTALWETPNRKVTIFKPPSENYYIVTVEIPGTGKTKTLRFPKNVSPEEIVKKLGSA [r9_522_JUSTAS]", "Measured Property": "folding stability dG unfold", "Unit Abbreviation": "kcal/mol", "Obs Value": 1.78}
{"Sequence Content": "SAGGEVKVEIEVELNEDGTLRVRARVEVRVDGELVTVEVEIEVRLEPAPPPAPPPVLVVDPETGEILSAGGS [r8_269_TrROS_Hall]", "Measured Property": "folding stability dG unfold", "Unit Abbreviation": "kcal/mol", "Obs Value": 2.7}

Find the recorded folding stability dG unfold belonging to SAGGSAGGSAGGPANLNDEPVLLIPVSSELLKLIPAEKLVELAAKLASPNVKRIYVLAPESAGGSAGGSAGG [r7_487_TrMRF] and report it.
0.424
